System: RXF 393
PROTOCOL: NCI tumour cell line growth inhibition, 48 h
Calls of active or inactive are those of the source. No stated cut-off is given here; in the data, active = GI50 up to about 1.1 µM and inactive = higher.
Below: a set of entries, each annotated with reported GI50.

Example compounds with recorded GI50:
[[record]]
compound = "CCCOc1ccc(-c2nc(-c3ccc(/N=C/c4ccc(N(CCOS(C)(=O)=O)CCOS(C)(=O)=O)cc4C)cc3)cs2)cc1"
attribute_measured = "GI50"
measured_value = "6.08 µM (inactive)"

[[record]]
compound = "O=C(O)CN(c1ccccc1)S(=O)(=O)c1ccc(Cl)cc1"
attribute_measured = "GI50"
measured_value = "> 100 µM (inactive)"


What reported GI50 corresponds to C[C@]12CC/C(=N\OCCN3CCCC3)C=C1CCC1C2CC[C@@]2(C)C1CC[C@]2(C)O (stereo partly specified) on RXF 393?
19.3 µM (inactive)

Follow-up entry: CC(=O)OCC1=C2C(OC(=O)C(C)C)CC3(COC(C)=O)OC3/C=C\C3(C)OC3C2OC1=O (stereo unspecified)
> 100 µM (inactive)

Follow-up entry: CCCCNC(=O)C1C(=O)N(CCCC)C(=O)/C1=N\N (stereo unspecified)
> 100 µM (inactive)

Follow-up entry: "O=C1CCc2cc3c(cc21)CC1(Cc2ccccc2C1)C3"
33 µM (inactive)

----------
Test system: UACC-257
PROTOCOL: NCI tumour cell line growth inhibition, 48 h
Activity calls are given as the source filed them. No stated cut-off is given here; in the data, active = GI50 up to about 1.1 µM and inactive = higher.
Below: a set of entries, each annotated with reported GI50.

Example compounds with recorded GI50:
[[record]]
compound = "O=[N+]([O-])c1ccc([I+]c2ccccc2)cc1"
attribute_measured = "GI50"
measured_value = "4.29 µM (inactive)"

[[record]]
compound = "CCCCCCCCCN1CCC(=O)C(C(=O)OC)C1 (centres undefined)"
attribute_measured = "GI50"
measured_value = "11 µM (inactive)"

[[record]]
compound = "C[C@@H]1O[C@@H](O[C@H]2[C@H](Oc3cc(O)c4c(=O)cc(-c5ccc(O)cc5)oc4c3)O[C@H](CO)[C@@H](O)[C@@H]2O)[C@H](O)[C@H](O)[C@H]1O [RHOIFOLIN]"
attribute_measured = "GI50"
measured_value = "> 100 µM (inactive)"

[[record]]
compound = "CN(C)/N=N/c1[nH]cnc1C(N)=O [DACARBAZINE]"
attribute_measured = "GI50"
measured_value = "49.8 µM (inactive)"

[[record]]
compound = "Cc1cn2cc(-c3cccs3)nc2s1"
attribute_measured = "GI50"
measured_value = "> 85.9 µM (inactive)"


Find the recorded GI50 belonging to "O=C(Nc1nc2ncn(CCNCCn3cnc4nc(NC(=O)c5ccccc5)[nH]c(=O)c43)c2c(=O)[nH]1)c1ccccc1" and report it.
> 100 µM (inactive)

----------
Below: a set of entries, each annotated with reported GI50.
Tested on: A549
PROTOCOL: NCI tumour cell line growth inhibition, 48 h
Calls of active or inactive are those of the source. No stated cut-off is given here; in the data, active = GI50 up to about 1.1 µM and inactive = higher.

Example molecules with recorded GI50:
[[record]]
molecule = "N#Cc1c(-c2ccco2)c2c(n(C3OC(CO)C(O)C(O)C3O)c1=S)CCCC2 (stereo not given)"
tgt = "A549"
attribute_measured = "GI50"
measured_value = "> 100 µM (inactive)"

[[record]]
molecule = "C[C@]12CC/C(=N\\OCCN3CCCC3)C=C1CCC1C2CC[C@@]2(C)C1CC[C@]2(C)O (stereo not given in full)"
tgt = "A549"
attribute_measured = "GI50"
measured_value = "11.5 µM (inactive)"


Find the recorded GI50 belonging to O=C1NC(O)c2ccccc2O1 (stereo not given) and report it.
> 100 µM (inactive)

Follow-up entry: CCCCCCCCCN1CCC(=O)C(C(=O)OC)C1 (stereo not given)
16.6 µM (inactive)

Follow-up entry: "C[C@@H]1O[C@@H](O[C@H]2[C@H](Oc3cc(O)c4c(=O)cc(-c5ccc(O)cc5)oc4c3)O[C@H](CO)[C@@H](O)[C@@H]2O)[C@H](O)[C@H](O)[C@H]1O"
> 100 µM (inactive)

Follow-up entry: CC12CCCCC1(C)C2Sc1ccccc1 (stereo not given)
43.6 µM (inactive)

Follow-up entry: "COc1ccc2[nH]c(=O)cc(C)c2c1[N+](=O)[O-]"
> 100 µM (inactive)

----------
Tested on: SK-MEL-5
PROTOCOL: NCI tumour cell line growth inhibition, 48 h
Activity calls are given as the source filed them. Rule as the data show it: active = GI50 up to about 1.1 µM and inactive = higher.
Output constraint: value belongs to YES (active), NO (inactive)

The following compounds have reported results that may help.
[[record]]
compound = "C=C(C)C1CC/C(C)=C/CC[C@]2(C)O[C@H]2CC/C(COC(C)=O)=C\\[C@@H]1O (stereo partly specified)"
answer_label = "NO"

[[record]]
compound = "O=C(O)CS [THIOGLYCOLIC ACID]"
answer_label = "NO"

[[record]]
compound = "COC(=O)/C=C/[C@@H]1[C@H](C)N1S(=O)(=O)c1ccc(C)cc1 (stereo partly specified)"
answer_label = "NO"

[[record]]
compound = "CC(=O)Nc1n[n+]([O-])c2cc(C)ccc2[n+]1[O-]"
answer_label = "NO"


// return assay outcome for "Cc1c(/C=N/NC(=S)Nc2ccccc2Cl)c(=O)n(-c2ccccc2)n1C"
NO

Follow-up entry: "CCN(CC)CCC(=O)c1ccc(C)cc1"
NO

Follow-up entry: "CN(C)c1snc2c1c(=O)n(C)c(=O)n2C"
NO

Follow-up entry: CC1=C(C#N)C23C(=O)c4ccccc4C(=O)C2=C(O)C=CC3(O)N1 (stereo unspecified)
YES

----------
Observed GI50, system HCT-15.

[[record]]
molecule = "c1ccc(-c2cc(-c3ccncc3)cc(-c3ccncc3)n2)cc1"
measured_value = "> 100 µM"

[[record]]
molecule = "Nc1ccccc1-c1noc(=O)[nH]1"
measured_value = "> 100 µM"

[[record]]
molecule = "Nc1nc(=O)n(C2OC(CO)C(O)C2O)cc1F (stereo unspecified)"
measured_value = "3.13 µM"


Find the recorded GI50 belonging to "O=C(Nc1cccc2c1[nH]c1c(-c3ccccc3)nccc12)c1ccccc1[N+](=O)[O-]" and report it.
7.36 µM

Follow-up entry: "COc1ccc(/C=N/c2ccc(-c3nc4ccccc4[nH]3)cc2)cc1OC"
> 100 µM

Follow-up entry: O=C1NC(O)c2ccccc2O1 (stereo unspecified)
> 100 µM

----------
Tested on: Hs-578T
PROTOCOL: NCI tumour cell line growth inhibition, 48 h
Active and inactive are the calls of the source. No stated cut-off is given here; in the data, active = GI50 up to about 1.1 µM and inactive = higher.
Below: a set of entries, each annotated with reported GI50.

[[record]]
compound = "Cc1ccc(O)cc1.Cc1cccc(O)c1.Cc1ccccc1O"
measured_value = "4.75 µM (inactive)"

[[record]]
compound = "NCCN1CC2CCC(CC2)C1"
measured_value = "> 10 µM (inactive)"

[[record]]
compound = "COC(=O)c1sc2c(Cl)c(Cl)sc2c1Cl"
measured_value = "> 100 µM (inactive)"

[[record]]
compound = "OC(COC(c1ccccc1)(c1ccccc1)c1ccccc1)C(O)CC1SCCS1 (stereo not drawn)"
measured_value = "12.2 µM (inactive)"

[[record]]
compound = "COc1cccc2c(=O)c3c(n(C)c12)OC(C(C)C)C3 (stereo not drawn)"
measured_value = "> 100 µM (inactive)"

[[record]]
compound = "Cc1nc(C)c(N2CCN(C(=O)O)CC2)c(O)n1"
measured_value = "> 100 µM (inactive)"

[[record]]
compound = "FC(F)(F)c1cccc(-c2nc3ccccc3c3c2[C@@]2(N4CCCC4)CCCC[C@@H]32)c1"
measured_value = "43.6 µM (inactive)"

[[record]]
compound = "COC(=O)n1c(=O)nc2c3c(ncn21)Oc1c(c(-c2ccccc2)nn1-c1ccccc1)C3c1ccc(Cl)cc1 (stereo not drawn)"
measured_value = "1.17 µM (inactive)"


Find the recorded GI50 belonging to CNC(=O)OC(C)CN1c2ccccc2Sc2ccccc21 (stereo not drawn) and report it.
> 100 µM (inactive)

Follow-up entry: "CCOC(CN(C)C(=O)OCC(Cl)(Cl)Cl)OCC"
29.7 µM (inactive)

Follow-up entry: C[C@]12CC/C(=N\OCCN3CCCC3)C=C1CCC1C2CC[C@@]2(C)C1CC[C@]2(C)O (stereo partly drawn)
13.8 µM (inactive)

Follow-up entry: "Cc1ccc(C(=O)Cc2nc3ncccc3[nH]c2=O)cc1"
13.3 µM (inactive)

Follow-up entry: "CCc1n[nH]c(=O)n1/N=C/c1ccc(C)cc1"
3.84 µM (inactive)

----------
Tested on: SF-295
PROTOCOL: NCI tumour cell line growth inhibition, 48 h
Activity calls are given as the source filed them. Rule as the data show it: active = GI50 up to about 1.1 µM and inactive = higher.
ATTRIBUTE MEASURED: GI50

[[record]]
compound = "COc1cc2c(cc1OC)[C@@](C)(C(O)C(O)C(C)(C)O)NCC2 (some centres undefined)"
attribute_measured = "GI50"
measured_value = "> 100 µM (inactive)"

[[record]]
compound = "NC(CCC(=O)O)C(=O)N1CCN(c2nc(N3CCCC3)c3nc(Cl)c(NCc4ccccc4)nc3n2)CC1 (centres undefined)"
attribute_measured = "GI50"
measured_value = "11.6 µM (inactive)"

[[record]]
compound = "COc1ccc2oc(C(=O)N3CC(CCl)c4ccc([N+](=O)[O-])cc43)cc2c1 (centres undefined)"
attribute_measured = "GI50"
measured_value = "13 µM (inactive)"

[[record]]
compound = "CN(C)CCC(=O)N1C/C(=C\\c2ccc(Cl)c(Cl)c2)C(=O)/C(=C/c2ccc(Cl)c(Cl)c2)C1"
attribute_measured = "GI50"
measured_value = "0.274 µM (active)"

[[record]]
compound = "CSc1cc(Br)ccc1-n1c(C(=O)c2ccccc2)c(SC)n(-c2ccccc2)c1=O"
attribute_measured = "GI50"
measured_value = "84.5 µM (inactive)"

[[record]]
compound = "CSC1SCC2C(=O)N(C)C3(CC3C)C(=O)OCC(NC(=O)c3nc4ccccc4cc3O)C(=O)NC(C)C(=O)N(C)C1C(=O)N(C)C1(CC1C)C(=O)OCC(NC(=O)c1nc3ccccc3cc1O)C(=O)NC(C)C(=O)N2C (centres undefined)"
attribute_measured = "GI50"
measured_value = "< 0.0001 µM (active)"


What reported GI50 corresponds to N=c1[nH]cnc2c1nnn2C1C=CC(COS(N)(=O)=O)C1 (centres undefined) on SF-295?
16.7 µM (inactive)
